Target: human TLR8 (Homo sapiens, UniProt Q9NR97)
Sequence (Q9NR97 27-1041): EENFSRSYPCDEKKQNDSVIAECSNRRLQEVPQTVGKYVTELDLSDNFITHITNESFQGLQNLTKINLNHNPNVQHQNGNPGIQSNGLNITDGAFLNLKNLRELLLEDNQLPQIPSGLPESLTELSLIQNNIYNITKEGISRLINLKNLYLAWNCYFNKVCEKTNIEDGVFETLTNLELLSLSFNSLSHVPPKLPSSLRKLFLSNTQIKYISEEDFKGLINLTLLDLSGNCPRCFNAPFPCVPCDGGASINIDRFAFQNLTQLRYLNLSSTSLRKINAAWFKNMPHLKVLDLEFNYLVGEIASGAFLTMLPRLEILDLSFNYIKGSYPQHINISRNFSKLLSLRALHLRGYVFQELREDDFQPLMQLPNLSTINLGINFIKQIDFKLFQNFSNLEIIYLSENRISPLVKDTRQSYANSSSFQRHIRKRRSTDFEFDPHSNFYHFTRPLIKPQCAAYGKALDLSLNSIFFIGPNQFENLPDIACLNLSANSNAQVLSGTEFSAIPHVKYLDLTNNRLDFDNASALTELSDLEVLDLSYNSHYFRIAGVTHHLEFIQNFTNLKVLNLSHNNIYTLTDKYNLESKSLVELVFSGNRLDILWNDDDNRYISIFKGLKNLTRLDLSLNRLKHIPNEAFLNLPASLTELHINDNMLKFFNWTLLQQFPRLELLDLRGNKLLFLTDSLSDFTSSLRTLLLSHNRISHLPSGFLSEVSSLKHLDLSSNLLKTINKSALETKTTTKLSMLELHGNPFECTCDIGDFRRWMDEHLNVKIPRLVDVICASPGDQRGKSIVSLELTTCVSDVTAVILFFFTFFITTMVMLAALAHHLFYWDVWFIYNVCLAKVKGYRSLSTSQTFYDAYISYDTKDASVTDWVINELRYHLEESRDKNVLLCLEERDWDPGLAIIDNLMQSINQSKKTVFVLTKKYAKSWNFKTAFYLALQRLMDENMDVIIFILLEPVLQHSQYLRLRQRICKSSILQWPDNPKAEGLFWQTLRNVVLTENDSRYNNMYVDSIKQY
Experiment: TLR8 inhibition reporter assay (HEK-Blue cells, SEAP reporter, R848 stimulation)
Conditions: HEK-Blue cells overexpressing human TLR8, SEAP reporter, R848 15.9 μM
Source text: TLR7/8/9 Inhibition Reporter Assays HEK-Blue™-cells (Invivogen) overexpressing human TLR7, TLR8 or TLR9 receptors were used for screening inhibitors of these receptors using an inducible SEAP (secreted embryonic alkaline phosphatase) reporter gene under the control of the IFN-β minimal promoter fused to five NF-κB and AP-1-binding sites. […]
PARAMETER: IC50

molecule="Cc1cc(-c2[nH]c3ccc(C4CCN(C5COC5)CC4)cc3c2C(C)C)cc2nccn12 [Example 711]" parameter=IC50 assay_result="100 to 1000 nM"
molecule="CNC(=O)CN1CCC(c2ccc3[nH]c(-c4cccn5ncnc45)c(C(C)C)c3c2)CC1 [Example 361]" parameter=IC50 assay_result="100 to 1000 nM"
molecule="CCc1c(-c2ccnc3[nH]ncc23)[nH]c2ccc(C3CCN(Cc4cn[nH]n4)CC3)cc12 [Example 892]" parameter=IC50 assay_result="< 100 nM"

IN: Fill in reported IC50 for this entry: Cc1nc2cc(-c3[nH]c4ccc(C5CCN(C(=O)CN(C)C)CC5)cc4c3C(C)C)ccn2n1 [Example 538]
OUT: 100 to 1000 nM

IN: Fill in reported IC50 for this entry: CC(C)c1c(-c2cc(CO)c3nccn3c2)[nH]c2ccc(C3CCNCC3)cc12 [Example 124]
OUT: < 100 nM

IN: Fill in reported IC50 for this entry: CNC(=O)CN1CCC(c2ccc3[nH]c(-c4cnc5ncnn5c4)c(C(C)C)c3c2)CC1 [Example 423]
OUT: < 100 nM

IN: Fill in reported IC50 for this entry: CC(C)c1c(-c2ccnc3[nH]ncc23)[nH]c2ccc(C3CCN(C(=O)CN4CCC[C@H]4C(N)=O)CC3)cc12 [Example 584]
OUT: < 100 nM

IN: Fill in reported IC50 for this entry: CNCC(=O)N1CCC(c2ccc3[nH]c(-c4cc(C)c5nccn5c4)c(C(C)C)c3c2)CC1 [Example 557]
OUT: < 100 nM

IN: Fill in reported IC50 for this entry: Cc1cc(-c2[nH]c3ccc(C4CCN(C5CCOCC5)CC4)cc3c2C(C)C)nn2ncnc12 [Example 686]
OUT: < 100 nM

----------
Biological target: human TLR7 (Homo sapiens, UniProt Q9NYK1)
Sequence (Q9NYK1 27-1049): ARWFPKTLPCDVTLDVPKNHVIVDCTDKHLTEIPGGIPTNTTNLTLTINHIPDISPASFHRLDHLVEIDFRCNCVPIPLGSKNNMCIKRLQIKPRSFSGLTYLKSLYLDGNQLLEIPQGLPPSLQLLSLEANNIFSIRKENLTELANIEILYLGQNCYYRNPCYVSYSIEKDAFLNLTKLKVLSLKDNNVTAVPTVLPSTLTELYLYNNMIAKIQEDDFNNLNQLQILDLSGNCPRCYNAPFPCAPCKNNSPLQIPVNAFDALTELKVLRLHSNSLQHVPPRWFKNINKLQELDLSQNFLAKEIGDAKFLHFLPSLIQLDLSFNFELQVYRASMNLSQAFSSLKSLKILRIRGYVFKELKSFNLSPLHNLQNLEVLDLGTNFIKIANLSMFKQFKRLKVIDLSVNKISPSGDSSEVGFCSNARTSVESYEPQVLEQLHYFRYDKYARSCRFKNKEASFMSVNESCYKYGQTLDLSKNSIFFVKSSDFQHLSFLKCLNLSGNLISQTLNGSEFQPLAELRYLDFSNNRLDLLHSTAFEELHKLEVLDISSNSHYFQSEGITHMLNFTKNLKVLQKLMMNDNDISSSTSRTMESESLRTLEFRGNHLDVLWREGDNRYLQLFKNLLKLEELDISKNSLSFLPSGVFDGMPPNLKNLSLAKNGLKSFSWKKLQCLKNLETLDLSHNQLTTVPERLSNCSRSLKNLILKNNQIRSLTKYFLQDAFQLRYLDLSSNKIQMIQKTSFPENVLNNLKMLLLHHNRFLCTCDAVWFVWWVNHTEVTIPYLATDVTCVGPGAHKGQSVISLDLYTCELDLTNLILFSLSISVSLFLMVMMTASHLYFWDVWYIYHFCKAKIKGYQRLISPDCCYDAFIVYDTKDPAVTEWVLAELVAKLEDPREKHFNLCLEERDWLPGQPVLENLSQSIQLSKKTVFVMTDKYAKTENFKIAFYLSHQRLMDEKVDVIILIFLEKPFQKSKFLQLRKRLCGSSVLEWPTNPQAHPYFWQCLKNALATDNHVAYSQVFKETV
Assay: TLR7 inhibition reporter assay (HEK-Blue cells, SEAP reporter, gardiquimod stimulation)
Conditions: HEK-Blue cells overexpressing human TLR7, SEAP reporter, gardiquimod 7.5 μM
From the text: TLR7/8/9 Inhibition Reporter Assays HEK-Blue™-cells (Invivogen) overexpressing human TLR7, TLR8 or TLR9 receptors were used for screening inhibitors of these receptors using an inducible SEAP (secreted embryonic alkaline phosphatase) reporter gene under the control of the IFN-β minimal promoter fused to five NF-κB and AP-1-binding sites. […]
pIC50: −log10 of the molar value.
Let's look at some compounds and their measured pIC50.

Below, each entry is followed by its recorded pIC50 result.
cpd_smiles=CCc1c(-c2ccnc3[nH]ncc23)[nH]c2ccc(C3CCN(C(=O)CNC)CC3)cc12 parameter=pIC50 assay_result="> 7.00"
cpd_smiles=CC(C)c1c(-c2ccc3c(N)n[nH]c3c2)[nH]c2ccc(C3CCNCC3)cc12 parameter=pIC50 assay_result="6.00 to 7.00"
cpd_smiles=Cc1cc(-c2[nH]c3ccc(C4CCN(CC(C)(C)O)CC4)cc3c2C(C)C)c2ccccc2n1 parameter=pIC50 assay_result="> 7.00"
cpd_smiles=Cc1cc2cc(-c3[nH]c4ccc(C5CCN(C(=O)CN(C)C)CC5)cc4c3C(C)C)ccn2n1 parameter=pIC50 assay_result="6.00 to 7.00"
cpd_smiles=CC(C)c1c(-c2ncnn3cccc23)[nH]c2ccc(C3CCNCC3)cc12 parameter=pIC50 assay_result="6.00 to 7.00"

IN: Fill in reported pIC50 for this entry: Cc1cc(-c2[nH]c3ccc(C4CCNCC4)cc3c2C(C)C)cc2nccn12
OUT: 6.00 to 7.00

IN: Fill in reported pIC50 for this entry: Cc1ccc(-c2[nH]c3ccc(C4CCN(CC(=O)N(C)C)CC4)cc3c2C(C)C)c2ncnn12
OUT: > 7.00

IN: Fill in reported pIC50 for this entry: CC(C)c1c(-c2ccc3nnnn3c2)[nH]c2ccc(C3CCNCC3)cc12
OUT: > 7.00
